Test Target: ASGP receptor (biotinylated ASGPR) (Homo sapiens, UniProt P07306)
Construct: biotin (biotinylated)
Sequence (P07306 whole entry): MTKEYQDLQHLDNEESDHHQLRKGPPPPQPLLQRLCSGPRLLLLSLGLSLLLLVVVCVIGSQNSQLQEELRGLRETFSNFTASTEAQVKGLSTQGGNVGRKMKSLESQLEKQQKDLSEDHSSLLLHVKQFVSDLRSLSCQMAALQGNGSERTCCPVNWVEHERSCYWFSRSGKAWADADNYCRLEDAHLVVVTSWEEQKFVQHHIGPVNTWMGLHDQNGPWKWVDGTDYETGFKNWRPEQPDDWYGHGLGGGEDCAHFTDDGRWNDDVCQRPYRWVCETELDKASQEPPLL
Assay type: binding
Experimental Conditions: SPR, Biacore 8K, 25° C.; Table 1A; read-out: ASGPR KD
pKd: −log10 of the molar value.
Measured pKd of individual entries

Reference set (3 entries):
>>> result("O[C@@H]1[C@H](O)[C@@H](Nc2cncc(C(F)(F)F)n2)CO[C@@H]1CNc1cccnc1")
"> 5.00"
>>> result("O=C(O)c1ccc(N2CCC(CN3CCN(C[C@H]4OC[C@H](Nc5nc(C(F)(F)F)ccc5F)[C@@H](O)[C@H]4O)CC3)CC2)cc1")
"> 5.00"
>>> result("O=C(NC[C@H]1OC[C@H](Nc2cncc(C(F)(F)F)n2)[C@@H](O)[C@H]1O)c1ccc2c(c1)CCNC2")
"> 5.00"

Reported pKd, compound `OC[C@H]1O[C@H](Cc2ccccc2)[C@@H](Nc2nccc(C(F)(F)F)n2)[C@@H](O)[C@H]1O` : ____
4.00 to 5.00

Value source: patent US20260083851A1
